pIC50: −log10 of the molar value.
System: UniProt:Q06187 | Read-out: pIC50 | Origin: multiple publications
quantity: pIC50

[[record]]
structure_notation = "CN(C)C/C=C/C(=O)N1CC[C@@H](n2c(Cl)c(-c3ccc(Cl)cc3)c3c(N)ncnc32)C1"
target_entity = "UniProt:Q06187"
quantity = "pIC50"
val = "> 7.00"

[[record]]
structure_notation = "CC#CC(=O)N1CC2(CC(n3nc(-c4ccc(Oc5ccccc5)cc4)c4cncnc43)C2)C1"
target_entity = "UniProt:Q06187"
quantity = "pIC50"
val = "> 7.00"

[[record]]
structure_notation = "C=CC(=O)Nc1cccc(-c2cc(N(C)C)cc(Nc3ncc(C)s3)n2)c1"
target_entity = "UniProt:Q06187"
quantity = "pIC50"
val = "< 6.40"

[[record]]
structure_notation = "CC(C)c1ccc(NCC(=O)N[C@@H]2CCCN(c3ncnc4[nH]ccc34)C2)cc1"
target_entity = "UniProt:Q06187"
quantity = "pIC50"
val = "5.00 to 6.00"

[[record]]
structure_notation = "C=CC(=O)Nc1cc(-n2c(=O)ccc3cnc4ccc(-c5ccc(C(N)=O)cc5)cc4c32)ccc1C"
target_entity = "UniProt:Q06187"
quantity = "pIC50"
val = 7.10

[[record]]
structure_notation = "C=CC(=O)Nc1cccc(-n2cnc3cnc(Nc4ccc(N5CCN(C)CC5)c(F)c4)nc32)c1"
target_entity = "UniProt:Q06187"
quantity = "pIC50"
val = "> 7.00"

[[record]]
structure_notation = "COc1ccccc1NCC(=O)N[C@@H]1CCCN(c2ncnc3[nH]ccc23)C1"
target_entity = "UniProt:Q06187"
quantity = "pIC50"
val = "6.00 to 7.00"

[[record]]
structure_notation = "N#Cc1c(N)ncnc1N[C@H]1CCCN(C(=O)CNc2cc(Cl)cc(Cl)c2)C1"
target_entity = "UniProt:Q06187"
quantity = "pIC50"
val = "< 5.00"

[[record]]
structure_notation = "C=CC(=O)Nc1cccc(Nc2cc(Oc3cccc(OC)c3)ncn2)n1"
target_entity = "UniProt:Q06187"
quantity = "pIC50"
val = "≥ 8.00"

[[record]]
structure_notation = "CC[C@@H](C)[C@@H](Nc1ccccc1)C(=O)N[C@@H]1CCCN(c2ncnc3[nH]ccc23)C1"
target_entity = "UniProt:Q06187"
quantity = "pIC50"
val = "6.00 to 7.00"

[[record]]
structure_notation = "Cc1cc[nH]c(=O)c1-c1ccc2nc(Nc3cccc(NC(=O)/C=C/CN4CCOCC4)c3)ncc2c1"
target_entity = "UniProt:Q06187"
quantity = "pIC50"
val = "> 7.00"

[[record]]
structure_notation = "COc1ccc(-c2ccnc3[nH]cc(C(=O)c4cccc(Cl)c4Cl)c23)cn1"
target_entity = "UniProt:Q06187"
quantity = "pIC50"
val = "≥ 5.00"

[[record]]
structure_notation = "Cn1cc(-c2cn3nccc3c(-c3ccc(CNC(=O)c4nc(C(C)(C)C)no4)c(C(F)F)c3)n2)cn1"
target_entity = "UniProt:Q06187"
quantity = "pIC50"
val = "> 9.00"

